// merged dataset of pKi values, system = Beta-secretase 1 (Homo sapiens), multiple refs
Scale explanation: pKi corresponds to minus log10 of a concentration expressed in moles per litre.

Guide cases for pKi, answers given:
MOLECULE: COc1ccc(C(=O)Nc2ccc(F)c([C@]3(C)CS(=O)(=O)C4(CCCCC4)C(=N)N3)c2)nc1
pKi: 7.43
//
MOLECULE: COc1cnc(C(=O)Nc2ccc(F)c([C@@]3(C)NC(=N)N(C)S(=O)(=O)C34CC4)c2)c(C)n1
pKi: 7.42
//
MOLECULE: Cc1cnn(-c2cc(-c3cc(F)c([C@]4(C)CS(=O)(=O)N(C)C(=N)N4)s3)ccn2)c1
pKi: 5.56

Would you kindly look at the next entry?
**Query** # return recorded pKi for entry `CN1C(=N)N[C@](C)(c2cc(-c3nnc(-c4cocn4)o3)ccc2F)CS1(=O)=O`
**Result** 5.12

====

// merged dataset of Ki values, system = Beta-secretase 1 (Homo sapiens, UniProt P56817), multiple refs
Lab book: enter the figure in µM, no units written.

Guide cases for Ki, answers given:
MOLECULE: C[C@@]1(c2cc(NC(=O)c3ccc(F)cn3)ccc2F)CS(=O)(=O)C2(CCCCC2)C(=N)N1
TEST TARGET: Beta-secretase 1 (Homo sapiens, UniProt P56817)
REPORTED MEASUREMENT: 0.032

MOLECULE: CN1C[C@@](C)(c2cc(NC(=O)c3ccc(C#N)cn3)ccc2F)NC(=N)C(C)(C)S1(=O)=O
TEST TARGET: Beta-secretase 1 (Homo sapiens, UniProt P56817)
REPORTED MEASUREMENT: 0.022

MOLECULE: CN1C[C@@](C)(c2cc(NC(=O)c3ccc(OC(F)F)cn3)ccc2F)NC(=N)C(C)(C)S1(=O)=O
TEST TARGET: Beta-secretase 1 (Homo sapiens, UniProt P56817)
REPORTED MEASUREMENT: 0.032

MOLECULE: COc1ccc(C(=O)Nc2ccc(F)c([C@@]3(C)NC(=N)N(C)S(=O)(=O)[C@@]34CCN(CC3CC3)C4)c2)nc1
TEST TARGET: Beta-secretase 1 (Homo sapiens, UniProt P56817)
REPORTED MEASUREMENT: 0.002

MOLECULE: COc1cnc(C(=O)Nc2ccc(F)c([C@]3(CF)CC[C@@](F)(CF)C(N)=N3)c2)cn1
TEST TARGET: Beta-secretase 1 (Homo sapiens, UniProt P56817)
REPORTED MEASUREMENT: 0.017

MOLECULE: CN1C(=N)N[C@](C)(c2sc3c(-c4ccc(-n5cccn5)cc4)nccc3c2Cl)CS1(=O)=O
TEST TARGET: Beta-secretase 1 (Homo sapiens, UniProt P56817)
REPORTED MEASUREMENT: 0.0299

MOLECULE: C#CCOc1ccc(C(=O)Nc2ccc(F)c([C@@]3(C)NC(=N)N(C)S(=O)(=O)C34CC4)c2)nc1
TEST TARGET: Beta-secretase 1 (Homo sapiens, UniProt P56817)
REPORTED MEASUREMENT: 0.006

MOLECULE: C#CCOc1ccc(C(=O)Nc2ccc3c(c2)[C@]2(COC3)CS(=O)(=O)C(C)(C)C(=N)N2)nc1
TEST TARGET: Beta-secretase 1 (Homo sapiens, UniProt P56817)
REPORTED MEASUREMENT: 0.03

MOLECULE: CN1C(=N)N[C@](C)(c2sc3c(-c4cnc(-n5cccn5)nc4)nccc3c2Cl)CS1(=O)=O
TEST TARGET: Beta-secretase 1 (Homo sapiens, UniProt P56817)
REPORTED MEASUREMENT: 0.0612

MOLECULE: COc1ccc(C(=O)Nc2ccc(F)c([C@]3(C)Cc4nc(C)ncc4C(=N)N3)c2)nc1
TEST TARGET: Beta-secretase 1 (Homo sapiens, UniProt P56817)
REPORTED MEASUREMENT: 0.0154

**Query** # return recorded Ki for entry `Cc1ncc2c(n1)C[C@@](C)(c1cc(NC(=O)c3ccc(Cl)cn3)ccc1F)NC2=N`
**Result** 0.0104

**Query** # return recorded Ki for entry `[2H]C1([2H])Oc2cnc(C(=O)Nc3ccc(F)c([C@]4(CF)CC[C@@](C)(S(C)(=O)=O)C(N)=N4)c3)cc2OC1([2H])[2H]`
**Result** 0.00018

====

pKi: −log10 of the molar value.
// merged dataset of pKi values, system = Beta-secretase 1 (Homo sapiens, UniProt P56817), multiple refs

Guide cases for pKi, answers given:
COMPOUND: CC1CN=C(c2ccc(-c3cc(Cl)c([C@]4(C)CS(=O)(=O)N(C)C(=N)N4)s3)[nH]2)O1 (stereo partly drawn)
TEST TARGET: Beta-secretase 1 (Homo sapiens, UniProt P56817)
REPORTED ENDPOINT: pKi
REPORTED MEASUREMENT: 7.06
--
COMPOUND: FC(F)(F)c1ccc(N2CCNCC2)c(NCc2ccc3ccccc3c2)c1
TEST TARGET: Beta-secretase 1 (Homo sapiens, UniProt P56817)
REPORTED ENDPOINT: pKi
REPORTED MEASUREMENT: 4.52 to 5.52
--
COMPOUND: Cc1nc(N2C[C@H]3C(=O)N(C)C(=N)N[C@@]3(c3ccc(F)cc3)C2)nc(C)c1F
TEST TARGET: Beta-secretase 1 (Homo sapiens, UniProt P56817)
REPORTED ENDPOINT: pKi
REPORTED MEASUREMENT: 7.19

**Query** # return recorded pKi for entry `Oc1cccc(-c2cc(COc3ccccc3C(F)(F)F)c(C3=CCNCC3)cc2COc2ccccc2C(F)(F)F)c1`
**Result** > 5.52

**Query** # return recorded pKi for entry `Cc1cccc(-c2ccc(N3CCNCC3)c(NC(=O)c3cccc4ccccc34)c2)c1`
**Result** 4.52 to 5.52

**Query** # return recorded pKi for entry `C1=C(c2cnc(OCc3ccccc3)nc2OCc2ccccc2)CCNC1`
**Result** 4.52 to 5.52

====

// merged dataset of log10 Ki values, system = Beta-secretase 1 (Homo sapiens), multiple refs
A difference of one corresponds to tenfold Ki; all values are log10 with Ki in nM.

Guide cases for log10 Ki, answers given:
MOLECULE: CC(C)Oc1ccc(-c2nnc(-c3cc(Cl)c([C@]4(C)CS(=O)(=O)N(C)C(=N)N4)s3)o2)cc1
REPORTED ENDPOINT: log10 Ki
REPORTED MEASUREMENT: 2.31
--
MOLECULE: NC1=N[C@](CF)(c2cc(NC(=O)c3cnc(C(F)F)cn3)ccc2F)C(F)(F)CC1
REPORTED ENDPOINT: log10 Ki
REPORTED MEASUREMENT: 1.48
--
MOLECULE: CN1C(=N)N[C@](C)(c2sc(-c3cc(F)cc(-c4cnco4)c3)cc2Cl)CS1(=O)=O
REPORTED ENDPOINT: log10 Ki
REPORTED MEASUREMENT: 1.06

Would you kindly look at the next entry?
**Query** Print Beta-secretase 1 (Homo sapiens) log10 Ki for `NC1=N[C@@](c2cc(NC(=O)c3ccc(Cl)cn3)ccc2F)(C(F)F)C(F)(F)CC1` .
**Result** 1.26

====

// merged dataset of Ki values, system = UniProt:P56817, multiple refs
Lab book: enter the figure in µM, no units written.

MOLECULE: C[C@@]1(F)C[C@]2(F)COC[C@]2(c2cc(NC(=O)c3ccc(Cl)cn3)ccc2F)N=C1N
U: µM
Ki: 0.0093
//
MOLECULE: CN1C(=N)N[C@](C)(c2cc(-c3nnc(-c4cnco4)o3)ccc2F)CS1(=O)=O
U: µM
Ki: 1.25

**Query** Print UniProt:P56817 Ki for `C#CCOc1ccc(C(=O)Nc2ccc(F)c([C@]3(C)CN(C)S(=O)(=O)C(C)(C)C(=N)N3)c2)nc1` .
**Result** 0.015

====

// merged dataset of Ki values, system = Beta-secretase 1 (Homo sapiens, UniProt P56817), multiple refs
Rule: Ki below 20 nM gives Yes. Equal to or above 20 nM gives No.

COMPOUND: CN1C(=N)N[C@@]2(c3cc(NC(=O)c4ccc(OC(F)F)cn4)ccc3F)CCC[C@H]2S1(=O)=O
CLASS ASSIGNMENT: Yes

COMPOUND: CN1C(=N)NC2(c3cc(NC(=O)C(F)F)ccc3F)CCCC2S1(=O)=O (centres unmarked)
CLASS ASSIGNMENT: No

COMPOUND: Cc1nc(N2C[C@H]3C(=O)N(C)C(=N)N[C@@]3(c3cc(C#N)cs3)C2)nc(C2CC2)c1F
CLASS ASSIGNMENT: No

COMPOUND: COc1cnc(C(=O)Nc2ccc(F)c([C@]3(C)CS(=O)(=O)C4(CCOCC4)C(=N)N3)c2)cn1
CLASS ASSIGNMENT: Yes

COMPOUND: CN1C(=N)N[C@](C)(c2cc(NC(=S)c3ccc(Cl)cn3)cc(F)c2F)CS1(=O)=O
CLASS ASSIGNMENT: Yes

**Query** # strict comparison: is reported Ki < 20 nM? input = `CC1(C)C(=N)N[C@@]2(COCc3ccc(NC(=O)c4cnc(OCCF)cn4)cc32)CS1(=O)=O`
**Result** No

**Query** # strict comparison: is reported Ki < 20 nM? input = `CN=[S@@]1(=O)C[C@@](C)(c2cc(Nc3ncnc4cc(Br)cnc34)ccc2F)NC(=N)C1(C)C`
**Result** Yes

**Query** # strict comparison: is reported Ki < 20 nM? input = `CN1CCC2(CC1)C(=N)N[C@](C)(c1cc(NC(=O)c3ccc(OC(F)(F)F)cn3)ccc1F)CS2(=O)=O`
**Result** Yes

**Query** # strict comparison: is reported Ki < 20 nM? input = `C[C@@]1(F)C[C@H](F)[C@@](C)(c2cc(NC(=O)c3ccc(C#N)cn3)ccc2F)N=C1N`
**Result** No

**Query** # strict comparison: is reported Ki < 20 nM? input = `COc1nc(N2C[C@H]3C(=O)N(C)C(=N)N[C@@]3(c3ccc(F)cc3Cl)C2)nc(C)c1F`
**Result** Yes

**Query** # strict comparison: is reported Ki < 20 nM? input = `CCc1nc(N2C[C@H]3C(=O)N(C)C(=N)N[C@@]3(c3ccc(F)cc3F)C2)nc(OC)c1F`
**Result** Yes

**Query** # strict comparison: is reported Ki < 20 nM? input = `CC1(C)C(=N)N[C@@]2(COCc3ccc(NC(=O)c4ccc(F)cn4)cc32)CS1(=O)=O`
**Result** No
